pIC50: −log10 of the molar value.
CYP3A4 (Homo sapiens, UniProt P08684) measurements of pIC50, listed per entry.
Sequence (P08684 whole entry): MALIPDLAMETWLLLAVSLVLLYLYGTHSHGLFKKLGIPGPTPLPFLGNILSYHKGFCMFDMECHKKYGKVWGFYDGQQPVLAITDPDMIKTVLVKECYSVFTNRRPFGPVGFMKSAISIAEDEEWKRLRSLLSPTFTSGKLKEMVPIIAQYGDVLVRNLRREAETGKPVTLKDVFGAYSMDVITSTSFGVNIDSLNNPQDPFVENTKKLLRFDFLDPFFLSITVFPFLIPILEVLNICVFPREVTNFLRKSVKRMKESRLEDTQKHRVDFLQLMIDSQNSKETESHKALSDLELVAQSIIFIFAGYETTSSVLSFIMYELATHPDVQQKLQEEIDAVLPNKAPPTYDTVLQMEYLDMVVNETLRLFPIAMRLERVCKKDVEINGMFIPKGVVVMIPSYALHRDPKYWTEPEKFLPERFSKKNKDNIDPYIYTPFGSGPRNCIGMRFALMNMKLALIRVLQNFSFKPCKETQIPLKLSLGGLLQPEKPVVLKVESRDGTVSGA

CC(C)NC(=O)C[C@H]1CCCN(C(=O)c2ccc(N3CCCC3)cc2Cl)c2ccccc21 [Control, reference compound] :: > 7.04

Documented pIC50 of `Cc1ccn(-c2ccc(C(=O)N3CCC(F)(F)/C(=C\C(N)=O)c4ccccc43)c(Cl)c2)n1` : < 4.70

----------
UniProtKB P11712 measurements of pIC50, listed per entry.
Sequence (P11712 whole entry): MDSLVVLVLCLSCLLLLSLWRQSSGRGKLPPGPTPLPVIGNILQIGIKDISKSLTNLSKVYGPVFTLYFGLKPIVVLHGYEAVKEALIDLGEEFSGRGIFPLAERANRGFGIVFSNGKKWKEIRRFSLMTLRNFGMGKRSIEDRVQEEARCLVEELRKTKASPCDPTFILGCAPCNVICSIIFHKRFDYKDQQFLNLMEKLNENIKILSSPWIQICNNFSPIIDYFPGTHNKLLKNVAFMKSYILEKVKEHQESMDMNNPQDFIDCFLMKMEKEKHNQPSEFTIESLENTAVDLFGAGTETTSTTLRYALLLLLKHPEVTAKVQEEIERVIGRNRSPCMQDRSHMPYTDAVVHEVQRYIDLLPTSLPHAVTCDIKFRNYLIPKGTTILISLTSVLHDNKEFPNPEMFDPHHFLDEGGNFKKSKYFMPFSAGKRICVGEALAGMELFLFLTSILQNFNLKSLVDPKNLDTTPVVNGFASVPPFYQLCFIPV
Notebook: values listed as pIC50 are -log10 of the concentration (mol/L).

Cc1ccn(-c2ccc(C(=O)N3CCC(F)(F)/C(=C\C(N)=O)c4ccccc43)c(Cl)c2)n1 [Example 8] :: 4.89

Lab note: next molecule to report on.
Bench note, UniProtKB P11712: NC(=O)CNC(=O)/C=C1/c2ccccc2N(C(=O)c2ccc(N3CCCC3)cc2Cl)CCC1(F)F [Example 220] , pIC50 reads 4.96
